Hey, just so you know, these numbers are from PubChem BioAssay (NCI).

Tested on: MALME-3M melanoma
test-details: NCI tumour cell line growth inhibition, 48 h
recorded-metric: TGI

Consider the following illustrative entries.
[
  {
    "compound": "Oc1cccc(/C=N/Nc2nnc(N/N=C/c3cccc(O)c3)c3ccccc23)c1",
    "recorded-metric": "TGI",
    "recorded-value": "57.3 µM"
  },
  {
    "compound": "COc1ccc(/C=C/C(=O)CC(=O)/C=C/c2ccc(OC)cc2)cc1",
    "recorded-metric": "TGI",
    "recorded-value": "> 100 µM"
  },
  {
    "compound": "O=c1c(NO)c([N+](=O)[O-])cnn1-c1ccccc1",
    "recorded-metric": "TGI",
    "recorded-value": "12 µM"
  }
]

TGI recorded for this compound, CO[C@@H]1C[C@H]2N3CC[C@@]2(c2cc4c(cc2C3)OCO4)[C@H]2O[C@@H]12 , is > 100 µM

TGI recorded for this compound, C/C(=N\NC(=S)N1CC2CCC(CC2)C1)c1cccc(C)n1 , is 17.8 µM

TGI recorded for this compound, CN(C)c1ccc(-c2ccc(N(C)C)c3n[se]nc23)c2n[se]nc12 , is > 100 µM

TGI recorded for this compound, C[C@]12CC[C@H]3[C@@H](C[C@@H]4SC(Nc5ccccc5)=N[C@@]45CC(O)CC[C@]35C)[C@@H]1CCC2O (stereo not given in full) , is 5.89 µM

TGI recorded for this compound, COc1ccc(/C(Cl)=C(\c2ccc(OCCN(C)C)cc2)c2ccc(OC(=O)C(C)(C)C)cc2)cc1 , is 30 µM

TGI recorded for this compound, CC(C)(C)OC/C=C1\C(=O)O[C@H]2C[C@@H](O[Si](C)(C)C(C)(C)C)C[C@@H]12 , is > 100 µM

TGI recorded for this compound, [O-][N+]1=NC(c2ccccc2)=C1c1ccccc1 , is > 50 µM

---

# Lookup of reported GI50 keyed by entry
Test system: UACC-257 melanoma
test-details: NCI tumour cell line growth inhibition, 48 h

[
  {
    "compound": "O=[n+]1c2ccccc2n([O-])c2cc(Cl)ccc21",
    "recorded-metric": "GI50",
    "recorded-value": "5.49 µM"
  },
  {
    "compound": "COc1ccc2c(Cl)cc(NC(=O)Nc3c(C)cccc3C)nc2c1",
    "recorded-metric": "GI50",
    "recorded-value": "20 µM"
  },
  {
    "compound": "C/C=C/[C@H]1O[C@@H]2C(=C[C@H]1O)C(=O)O[C@H]2C",
    "recorded-metric": "GI50",
    "recorded-value": "21.7 µM"
  },
  {
    "compound": "N#Cc1c(N)nc(N)nc1N[C@H](c1nc2c(F)ccc(Cl)c2c(=O)n1-c1cccnc1)C1CC1",
    "recorded-metric": "GI50",
    "recorded-value": "8.18 µM"
  },
  {
    "compound": "COC(=O)/C=C1/SC(N2N=C(c3cccs3)CC2c2ccc(F)cc2)=NC1=O (stereo not given)",
    "recorded-metric": "GI50",
    "recorded-value": "2.39 µM"
  },
  {
    "compound": "CC(=O)C1=C(C)N(C)C2(O)C=CC(=O)C3=C(O)c4ccccc4C(=O)C312 (stereo not given)",
    "recorded-metric": "GI50",
    "recorded-value": "5.73 µM"
  }
]

GI50 recorded for this compound, CCCCC(=O)N/N=C/c1c(O)ccc2ccccc12 , is 3 µM

GI50 recorded for this compound, CCCCc1n(Cc2ccc3ccccc3c2)cc[n+]1Cc1ccc2ccccc2c1 , is 1.04 µM

GI50 recorded for this compound, CCc1cc2ncc(CN3CCN(c4ccc(C(=O)NC)nc4)CC3)cc2[nH]c1=O , is 55.1 µM

GI50 recorded for this compound, Cc1cc(C(=O)O)c(C)n1-c1cccc(C(=O)O)c1 , is > 100 µM
